Target: Prothrombin (Homo sapiens, UniProt P00734); further: assay procedure not described here
Type: functional
QUANTITY: AC50

COMPOUND: CC(CN1CC(=O)NC(=O)C1)N1CC(=O)NC(=O)C1 (stereo unspecified)
QUANTITY: AC50
DATA_VALUE: > 30 µM

COMPOUND: CCn1cc(C(=O)O)c(=O)c2cc3c(cc21)OCO3
QUANTITY: AC50
DATA_VALUE: > 30 µM

COMPOUND: C#C[C@]1(O)CC[C@H]2[C@@H]3CCC4=CC(=O)CC[C@@H]4[C@H]3C(=C)C[C@@]21CC
QUANTITY: AC50
DATA_VALUE: > 30 µM

COMPOUND: C/C=C/C/C=C/CCC(=O)[C@H]1O[C@H]1C(N)=O
QUANTITY: AC50
DATA_VALUE: > 30 µM

COMPOUND: CCOC(=O)N1CSC[C@H]1C(=O)O
QUANTITY: AC50
DATA_VALUE: > 30 µM

COMPOUND: O=[N+]([O-])c1ccc(O)c2ncccc12
QUANTITY: AC50
DATA_VALUE: > 30 µM

COMPOUND: CCCc1nc(C(C)(C)O)c(C(=O)O)n1Cc1ccc(-c2ccccc2-c2nnn[nH]2)cc1
QUANTITY: AC50
DATA_VALUE: > 30 µM

COMPOUND: CCN(CC)C(=S)S
QUANTITY: AC50
DATA_VALUE: > 30 µM

COMPOUND: COc1cc2nccc(Oc3ccc(NC(=O)C4(C(=O)Nc5ccc(F)cc5)CC4)cc3)c2cc1OC [CABOZANTINIB]
QUANTITY: AC50
DATA_VALUE: > 30 µM

COMPOUND: CN1CCC(=C2c3ccccc3Sc3ccccc32)CC1
QUANTITY: AC50
DATA_VALUE: > 30 µM

COMPOUND: CC[C@@]1(O)C(=O)OCc2c1cc1n(c2=O)Cc2cc3c([N+](=O)[O-])cccc3nc2-1
QUANTITY: AC50
DATA_VALUE: > 30 µM

COMPOUND: C[C@H]1O[C@@H](n2cc(F)c(=O)[nH]c2=O)[C@H](O)[C@@H]1O
QUANTITY: AC50
DATA_VALUE: > 30 µM

COMPOUND: NCC(CC(=O)O)c1ccccc1 (stereo unspecified)
QUANTITY: AC50
DATA_VALUE: > 30 µM

COMPOUND: CC[C@H](c1ccc(O)cc1)[C@@H](CC)c1ccc(O)cc1
QUANTITY: AC50
DATA_VALUE: > 30 µM

COMPOUND: N[C@@H](CS)C(=O)O
QUANTITY: AC50
DATA_VALUE: > 30 µM

COMPOUND: CC1=C(/C=C/C(C)=C/C=C/C(C)=C/C(=O)O)C(C)(C)CCC1
QUANTITY: AC50
DATA_VALUE: > 30 µM

COMPOUND: NC(=O)OCC(O)COc1ccc(Cl)cc1 (stereo unspecified) [CHLORPHENESIN CARBAMATE]
QUANTITY: AC50
DATA_VALUE: > 30 µM

COMPOUND: O=C(O)c1cn(C2CC2)c2cc(N3CCNCC3)c(F)cc2c1=O
QUANTITY: AC50
DATA_VALUE: > 30 µM

COMPOUND: O=C(O)CCCCC1CCSS1 (stereo unspecified)
QUANTITY: AC50
DATA_VALUE: > 30 µM

COMPOUND: [H]/N=C(\N/C(=N/[H])Nc1ccc(Cl)cc1)NC(C)C
QUANTITY: AC50
DATA_VALUE: > 30 µM

COMPOUND: OC[C@H]1O[C@@](CO)(O[C@H]2O[C@H](CO)[C@@H](O)[C@H](O)[C@H]2O)[C@@H](O)[C@@H]1O
QUANTITY: AC50
DATA_VALUE: > 30 µM

COMPOUND: CCOC(=O)[C@H](CCc1ccccc1)N[C@@H](C)C(=O)N(CC(=O)O)C1Cc2ccccc2C1
QUANTITY: AC50
DATA_VALUE: > 30 µM

COMPOUND: OC[C@@H](O)[C@@H](O)[C@H](O)[C@@H](O)CO
QUANTITY: AC50
DATA_VALUE: > 30 µM

COMPOUND: Cc1ccccc1N1CCN(CCc2nnc3n2CCCC3)CC1
QUANTITY: AC50
DATA_VALUE: > 30 µM

COMPOUND: CC(=O)O[C@]1(C(C)=O)CC[C@H]2[C@@H]3C=C(Cl)C4=CC(=O)CC[C@]4(C)[C@H]3CC[C@@]21C [CHLORMADINONE ACETATE]
QUANTITY: AC50
DATA_VALUE: > 30 µM

COMPOUND: CC(C)OC(=O)CCC/C=C\C[C@@H]1[C@@H](/C=C/C(F)(F)COc2ccccc2)[C@H](O)C[C@@H]1O
QUANTITY: AC50
DATA_VALUE: > 30 µM

COMPOUND: CC[C@@H]([C@H](C)O)n1ncn(-c2ccc(N3CCN(c4ccc(OC[C@@H]5CO[C@@](Cn6cncn6)(c6ccc(F)cc6F)C5)cc4)CC3)cc2)c1=O
QUANTITY: AC50
DATA_VALUE: > 30 µM

COMPOUND: CC(C)N(CCNC(=O)CN1CCCC1=O)C(C)C
QUANTITY: AC50
DATA_VALUE: > 30 µM

COMPOUND: CC(C)C[C@H](NC(=O)CNC(=O)c1cc(Cl)ccc1Cl)B(O)O
QUANTITY: AC50
DATA_VALUE: > 30 µM

COMPOUND: CN1CCCCC1CCN1c2ccccc2Sc2ccc([S+](C)[O-])cc21 (stereo unspecified)
QUANTITY: AC50
DATA_VALUE: > 30 µM

COMPOUND: Nc1c2ccccc2nc2ccccc12
QUANTITY: AC50
DATA_VALUE: > 30 µM

COMPOUND: CN1C(=O)/C(=N\NC(N)=S)c2ccccc21
QUANTITY: AC50
DATA_VALUE: > 30 µM

COMPOUND: CC(C(=O)O)c1ccc(-c2ccccc2)c(F)c1 (stereo unspecified)
QUANTITY: AC50
DATA_VALUE: > 30 µM

COMPOUND: O=C(O)c1cc(/N=N/c2ccc(O)c(C(=O)O)c2)ccc1O
QUANTITY: AC50
DATA_VALUE: > 30 µM

COMPOUND: N[C@@H](CO)C(=O)O
QUANTITY: AC50
DATA_VALUE: > 30 µM

COMPOUND: CC[C@H](C)C[C@H](C)CCCCCCCCC(=O)N[C@H]1C[C@@H](O)[C@@H](NCCN)NC(=O)[C@@H]2[C@@H](O)CCN2C(=O)[C@H]([C@H](O)CCN)NC(=O)[C@H]([C@H](O)[C@@H](O)c2ccc(O)cc2)NC(=O)[C@@H]2C[C@@H](O)CN2C(=O)[C@H]([C@@H](C)O)NC1=O
QUANTITY: AC50
DATA_VALUE: > 30 µM
